Field: enrichment ratio. Provide a value for each of the variants that follow.
B1: PhoQ; a variant is named by its letters at X, in order, P23837 (parent)
chain: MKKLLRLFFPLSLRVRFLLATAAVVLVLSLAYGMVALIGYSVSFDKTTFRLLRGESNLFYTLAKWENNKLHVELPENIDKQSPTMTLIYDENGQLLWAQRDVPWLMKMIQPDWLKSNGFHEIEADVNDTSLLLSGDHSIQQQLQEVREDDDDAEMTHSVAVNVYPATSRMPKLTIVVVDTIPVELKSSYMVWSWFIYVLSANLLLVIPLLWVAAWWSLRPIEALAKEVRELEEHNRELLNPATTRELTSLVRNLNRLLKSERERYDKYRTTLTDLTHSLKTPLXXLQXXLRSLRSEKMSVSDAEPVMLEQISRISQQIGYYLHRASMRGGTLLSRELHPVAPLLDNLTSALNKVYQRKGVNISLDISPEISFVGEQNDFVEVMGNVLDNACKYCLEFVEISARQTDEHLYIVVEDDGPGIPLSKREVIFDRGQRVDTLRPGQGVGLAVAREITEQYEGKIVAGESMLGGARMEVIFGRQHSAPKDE

Variants of: B1
Assay: enrichment ratio after two sorts for PhoP signalling (ratio (wild type AVST 3.29)); higher = more functional
Conditions: with PhoP (E. coli)
In all, about 140,000 sequences were measured (“enrichment ratio after two sorts for PhoP signalling”: median about 0, highest 2% from about 11 on). Many of the other results were omitted from the sample, so the highest values are more common in it than they were.
Number only, please.

Q. Item TGWQ has what recorded enrichment ratio?
A. 22.6

Q. Cool, now MKAL
A. 4.45

Q. Cool, now TICV
A. 6.14

Q. Cool, now AMAL
A. 11.3

Q. Cool, now TICS
A. 13

Q. Cool, now MMAL
A. 13.5

Q. Cool, now QSWQ
A. 33.6

Q. Cool, now VLAL
A. 0.925

Q. Cool, now QIWQ
A. 34.4

Q. Cool, now TICI
A. 2.26
